test system: SF-539; experiment: NCI tumour cell line growth inhibition, 48 h
Activity calls are given as the source filed them. No stated cut-off is given here; in the data, active = GI50 up to about 1.1 µM and inactive = higher.
reported_property: GI50

Here are 4 compounds together with their reported answers.
1) CC(C)C1CNC(=O)C2(/C=N/C(C(C)C)CNC(=O)C3(/C=N/1)CCCO3)CCCO2 (stereo not given) :: > 10 µM (inactive)
2) COc1cccc(C(=O)Oc2ccc(OS(=O)(=O)c3ccc(C)cc3)cc2)c1C#N :: > 100 µM (inactive)
3) CN(C)CCCNc1ccc2ncn3c4ccccc4c(=O)c1c23 :: 8.73 µM (inactive)
4) COC(=O)c1cc2ccc(OC(C)=O)c(OC(C)=O)c2cn1 :: 19.1 µM (inactive)

Data point: "N#Cc1c(C#N)c(SSc2c(C#N)c(C#N)c(N)n2-c2ccccc2)n(-c2ccccc2)c1N" ; GI50 = 92.9 µM (inactive)

---

Attribute: GI50
test system: RXF 393; assay: NCI tumour cell line growth inhibition, 48 h
The source made the active and inactive calls. Cut-off read from the data, not from the text of the source: active = GI50 up to about 1.1 µM and inactive = higher.

Here are 5 compounds together with their reported answers.
1) COc1ccc(/C=C2\Oc3cc(OC(C)=O)ccc3C2=O)cc1 :: > 100 µM (inactive)
2) COc1ccc(-c2cnoc2-c2ccc(OC)c(OC)c2)cc1OC :: 1.23 µM (inactive)
3) C/C(=N\NC(N)=S)C(CN1CCCCC1)C(C1=C(O)c2ccccc2OC1)c1ccccc1 (stereo not drawn) :: > 100 µM (inactive)
4) CN(C)c1n/c(=N/c2ccc3c(c2)OCO3)ss1 :: 96.4 µM (inactive)
5) COc1ccc(C(=O)O)c2c(=O)c3ccccc3[nH]c12 :: > 100 µM (inactive)

Hey, RXF 393 data for CC(=O)C1=C(C)N(c2ccccc2)C2(O)C=CC(O)=C3C(=O)c4ccccc4C(=O)C312 (stereo not drawn) : GI50 came out at 11.6 µM (inactive)

Hey, RXF 393 data for O=C(OC1OC2COC(=O)c3cc(O)c(O)c(O)c3-c3c(cc(O)c(O)c3O)C(=O)OC3C2OC(=O)[C@@]24CC(=O)[C@@](O)(OC25C(=O)O[C@H]2[C@@H](O)CO[C@@]25O)C2(O)Oc5c(O)c(O)cc(c5C24)C(=O)OC13)c1cc(O)c(O)c(O)c1 (stereo partly drawn) : GI50 came out at > 100 µM (inactive)

Hey, RXF 393 data for COc1ccc(COCC[C@H](C)OC2OC(CO[Si](C)(C)C(C)(C)C)C(O)C(O)C2O)cc1 (stereo partly drawn) : GI50 came out at > 100 µM (inactive)

---

Attribute: GI50
tested on: MOLT-4; assay: NCI tumour cell line growth inhibition, 48 h
The source made the active and inactive calls. Rule as the data show it: active = GI50 up to about 1.1 µM and inactive = higher.

Here are 4 molecules together with their reported answers.
1. O=C(CCN1CCCCC1)N1CCc2c([nH]c3ccccc23)C1c1cccnc1 (centres undefined) :: 47.1 µM (inactive)
2. Nc1c(-c2cccc3ccccc23)c2ccc([N+](=O)[O-])cc2c(=O)n1-c1nc2ccccc2s1 :: 3.03 µM (inactive)
3. O=C(CCCn1cnc([N+](=O)[O-])n1)NCCCn1ccnc1[N+](=O)[O-] :: > 100 µM (inactive)
4. CCOC(OCC)[C@H](N)[C@@H](O)[C@@H](O)[C@H]1COC(C)(C)O1 :: > 100 µM (inactive)

Hey, MOLT-4 data for C=CC1C(OC2OC(CO)C(O)C(O)C2O)OC=C(C(=O)OC)C1CC=O (centres undefined) : GI50 came out at > 100 µM (inactive)

Hey, MOLT-4 data for "CC(=O)OC[C@@H](OC(C)=O)[C@@H](OC(C)=O)[C@H]1OC[C@@H]2C[C@H]([C@H]1OC(C)=O)N(Cc1ccccc1)O2" : GI50 came out at > 100 µM (inactive)

Hey, MOLT-4 data for "O=C1/C(=C/c2ccc3c(c2)OCO3)Sc2scc(-c3ccc(O)c(O)c3)[n+]21" : GI50 came out at 0.927 µM (active)

Hey, MOLT-4 data for CCN(CC)[C@@H]1c2cc3c(cc2C(c2cc(OC)c(O)c(OC)c2)C2C(=O)CO[C@@H]21)OCO3 (some centres undefined) : GI50 came out at > 100 µM (inactive)

Hey, MOLT-4 data for N=C(N)C1CN(CCCCCCCCCCN2CC(C(=N)N)C(O)=NC2=O)C(=O)N=C1O (centres undefined) : GI50 came out at > 10 µM (inactive)
